Target: Kras and SOS1 (biotin-tagged human Kras loaded with GDP, His-tagged human SOS1) (Homo sapiens, UniProt P01116, G12D)
Construct: made in house; host or cells: E. coli (stated for Kras only)
Sequence (P01116 1-188 isoform P01116-2 G12D): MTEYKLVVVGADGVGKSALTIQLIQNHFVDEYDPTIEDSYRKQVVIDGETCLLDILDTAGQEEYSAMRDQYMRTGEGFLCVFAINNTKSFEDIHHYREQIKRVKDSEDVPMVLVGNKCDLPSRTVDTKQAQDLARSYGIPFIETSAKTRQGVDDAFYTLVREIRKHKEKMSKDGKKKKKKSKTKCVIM
Assay: Protein-protein interaction inhibition between Kras and SOS1 (KrasGl2D-SOS PPI) using AlphaScreen
Assay type: binding
Conditions: AlphaScreen; biotin-tagged human Kras loaded with GDP, His-tagged human SOS1; read-out: KRAS G12D-SOS PPI IC50
pIC50: −log10 of the molar value. Starred links: 1 amine or outer side, 2 acyl side, 3 side chain; linkers in the order of their positions; H or OH if unused. Positions of bridges follow the written chain, without caps; N, C: chain ends. Non-standard residues stand in square brackets, D forms with d. Residues, ends and D or L forms follow the SMILES beside them. *: point of attachment. hPhe(3,5-F2-4-CF3) = N[C@@H](CCc1cc(F)c(C(F)(F)F)c(F)c1)C(=O)O; hPhe(3-Cl-4-CF3) = N[C@@H](CCc1ccc(C(F)(F)F)c(Cl)c1)C(=O)O; X17 = Cc1cncc(C[C@@H](C(=O)[*:2])N(C)[*:1])c1; NMeAbu(4,4,4-F3) = CN[C@@H](CC(F)(F)F)C(=O)O; NMePhe(2-Cl) = CN[C@@H](Cc1ccccc1Cl)C(=O)O; NMedβ3hAla = C[C@H](CC(=O)[*:2])N(C)[*:1]; NMeAla(cPent) = CN[C@@H](CC1CCCC1)C(=O)O; NMeGly(cPent) = CN[C@H](C(=O)O)C1CCCC1; Pro(4,4-F2) = O=C(O)[C@@H]1CC(F)(F)CN1; NMeCha = CN[C@@H](CC1CCCCC1)C(=O)O; NMehLeu = CN[C@@H](CCC(C)C)C(=O)O; NMeChg = CN[C@H](C(=O)O)C1CCCCC1; NMeF = CN[C@@H](Cc1ccccc1)C(=O)O; NMeD = CN[C@@H](CC(=O)O)C(=O)O; NMeL = CN[C@@H](CC(C)C)C(=O)O; NMeV = CN[C@H](C(=O)O)C(C)C; d(β3hA) = C[C@@H](N)CC(=O)O; Iva = CC[C@](C)(N)C(=O)O; NMeA = CN[C@@H](C)C(=O)O; Piperidide = C1CCN(*)CC1; Pyrrolidide = C1CCN(*)C1; dNMeA = CN[C@H](C)C(=O)O; Ac5c = NC1(C(=O)O)CCCC1; Aze = O=C(O)[C@@H]1CCN1; Sar = CNCC(=O)O
Listed below: pIC50 values for each entry.

COMPOUND | pIC50
CC[C@H](C)[C@@H]1NC(=O)[C@H](CC(C)C)N(C)C(=O)C[C@@H](C(=O)N2CCCCC2)N(C)C(=O)[C@H](CCC(C)C)N(C)C(=O)C2(CCCC2)NC(=O)[C@@H]2CCCN2C(=O)[C@H](CCc2ccc(C(F)(F)F)c(Cl)c2)NC(=O)CN(C)C(=O)[C@H](CC2CCCCC2)N(C)C(=O)CN(C)C(=O)CN(C)C1=O [Compound 762] ([NMeL]I[Sar][Sar][NMeCha][Sar][hPhe(3-Cl-4-CF3)]P[Ac5c][NMehLeu][NMeD]-Piperidide; lactam N-11) | 8.26
CC[C@H](C)[C@@H]1NC(=O)[C@H](CC(F)(F)F)N(C)C(=O)C[C@@H](C(=O)N2CCCC2)N(C)C(=O)[C@H](C2CCCCC2)N(C)C(=O)C2(CCCC2)NC(=O)[C@@H]2CC(F)(F)CN2C(=O)[C@H](CCc2cc(F)c(C(F)(F)F)c(F)c2)NC(=O)CN(C)C(=O)[C@H](CC2CCCCC2)N(C)C(=O)CN(C)C(=O)CN(C)C1=O [Compound 1281] ([NMeAbu(4,4,4-F3)]I[Sar][Sar][NMeCha][Sar][hPhe(3,5-F2-4-CF3)][Pro(4,4-F2)][Ac5c][NMeChg][NMeD]-Pyrrolidide; lactam N-11) | 9.38
CC[C@H](C)[C@@H]1NC(=O)[C@H](C)N(C)C(=O)C[C@@H](C)NC(=O)[C@H](C2CCCC2)N(C)C(=O)C2(CCCC2)NC(=O)[C@@H]2CCCN2C(=O)[C@H](CCc2ccc(C(F)(F)F)c(Cl)c2)NC(=O)CN(C)C(=O)[C@H](Cc2ccccc2Cl)N(C)C(=O)[C@@H]2CCCN2C(=O)CN(C)C1=O [Compound 82] (cyclo([Ac5c][NMeGly(cPent)][d(β3hA)][NMeA]I[Sar]P[NMePhe(2-Cl)][Sar][hPhe(3-Cl-4-CF3)]P)) | 6.85
CC[C@H](C)[C@@H]1NC(=O)[C@H](CC(C)C)N(C)C(=O)C[C@@H](C(=O)N2CCCCC2)N(C)C(=O)[C@H](C2CCCCC2)N(C)C(=O)C2(CCCC2)NC(=O)[C@H](Cc2cncc(C)c2)N(C)C(=O)[C@H](CCc2ccc(C(F)(F)F)c(Cl)c2)NC(=O)CN(C)C(=O)[C@H](CC2CCCCC2)N(C)C(=O)[C@@H]2CCN2C(=O)[C@H](C)N(C)C1=O [Compound 338] ([NMeL]I[NMeA][Aze][NMeCha][Sar][hPhe(3-Cl-4-CF3)][X17][Ac5c][NMeChg][NMeD]-Piperidide; lactam N-11) | 6.66
CC[C@H](C)[C@@H]1NC(=O)[C@H](CC(C)C)N(C)C(=O)C[C@@H](C(=O)N2CCCCC2)N(C)C(=O)[C@H](C(C)C)N(C)C(=O)[C@](C)(CC)NC(=O)[C@@H]2CCCN2C(=O)[C@H](CCc2ccc(C(F)(F)F)c(Cl)c2)NC(=O)CN(C)C(=O)[C@H](CC2CCCCC2)N(C)C(=O)[C@@H]2CCN2C(=O)[C@H](C)N(C)C1=O [Compound 394] ([NMeL]I[NMeA][Aze][NMeCha][Sar][hPhe(3-Cl-4-CF3)]P[Iva][NMeV][NMeD]-Piperidide; lactam N-11) | 7.89
CC[C@H](C)[C@@H]1NC(=O)[C@H](CC(C)C)N(C)C(=O)C[C@@H](C)N(C)C(=O)[C@H](C(C)C)N(C)C(=O)C2(CCCC2)NC(=O)[C@@H]2CCCN2C(=O)[C@H](CCc2ccc(C(F)(F)F)c(Cl)c2)NC(=O)CN(C)C(=O)[C@H](CC2CCCCC2)N(C)C(=O)CN(C)C(=O)CN(C)C1=O [Compound 608] (cyclo([Ac5c][NMeV][NMedβ3hAla][NMeL]I[Sar][Sar][NMeCha][Sar][hPhe(3-Cl-4-CF3)]P)) | 8.23
CC[C@H](C)[C@@H]1NC(=O)[C@H](C)N(C)C(=O)C[C@@H](C)N(C)C(=O)[C@H](C(C)C)N(C)C(=O)C2(CCCC2)NC(=O)[C@@H]2CCCN2C(=O)[C@H](CCc2ccc(C(F)(F)F)c(Cl)c2)NC(=O)CN(C)C(=O)[C@H](CC2CCCCC2)N(C)C(=O)CN(C)C(=O)CN(C)C1=O [Compound 714] (cyclo([Ac5c][NMeV][NMedβ3hAla][NMeA]I[Sar][Sar][NMeCha][Sar][hPhe(3-Cl-4-CF3)]P)) | 8.64
CC[C@H](C)[C@@H]1NC(=O)[C@H](CC(C)C)N(C)C(=O)C[C@@H](C)N(C)C(=O)[C@H](CC2CCCC2)N(C)C(=O)C2(CCCC2)NC(=O)[C@@H]2CCCN2C(=O)[C@H](CCc2ccc(C(F)(F)F)c(Cl)c2)NC(=O)CN(C)C(=O)[C@H](CC2CCCCC2)N(C)C(=O)CN(C)C(=O)CN(C)C1=O [Compound 991] (cyclo([Ac5c][NMeAla(cPent)][NMedβ3hAla][NMeL]I[Sar][Sar][NMeCha][Sar][hPhe(3-Cl-4-CF3)]P)) | 7.12
CC[C@H](C)[C@@H]1NC(=O)[C@H](C)N(C)C(=O)C[C@@H](C(=O)N2CCCCC2)N(C)C(=O)[C@H](C(C)C)N(C)C(=O)C2(CCCC2)NC(=O)[C@@H]2CCCN2C(=O)[C@H](CCc2ccc(C(F)(F)F)c(Cl)c2)NC(=O)[C@@H](C)N(C)C(=O)[C@H](Cc2ccccc2)N(C)C(=O)CN(C)C(=O)CN(C)C1=O [Compound 1844] ([NMeA]I[Sar][Sar][NMeF][dNMeA][hPhe(3-Cl-4-CF3)]P[Ac5c][NMeV][NMeD]-Piperidide; lactam N-11) | 7.77

###

Measured pIC50, listed per entry.
Biological target: Kras and SOS1 (biotin-tagged human Kras loaded with GDP, His-tagged human SOS1) (Homo sapiens, UniProt P01116, G12D)
Construct: made in house; host or cells: E. coli (stated for Kras only)
Test: Protein-protein interaction inhibition between Kras and SOS1 (KrasGl2D-SOS PPI) using AlphaScreen
Type: binding
Conditions: AlphaScreen; biotin-tagged human Kras loaded with GDP, His-tagged human SOS1; read-out: KRAS G12D-SOS PPI IC50
pIC50: −log10 of the molar value. Starred links: 1 amine or outer side, 2 acyl side, 3 side chain; linkers in the order of their positions; H or OH if unused. Positions of bridges follow the written chain, without caps; N, C: chain ends. Non-standard residues stand in square brackets, D forms with d. Residues, ends and D or L forms follow the SMILES beside them. *: point of attachment. hPhe(3-Cl-4-CF3) = N[C@@H](CCc1ccc(C(F)(F)F)c(Cl)c1)C(=O)O; X15 = COc1cc(CC[C@H](N[*:1])C(=O)[*:2])cc(Cl)c1Cl; NMePhe(4-F) = CN[C@@H](Cc1ccc(F)cc1)C(=O)O; NMeGly(cPent) = CN[C@H](C(=O)O)C1CCCC1; NMeCha = CN[C@@H](CC1CCCCC1)C(=O)O; NMeD = CN[C@@H](CC(=O)O)C(=O)O; NMeV = CN[C@H](C(=O)O)C(C)C; d(β3hA) = C[C@@H](N)CC(=O)O; dPip = O=C(O)[C@H]1CCCCN1; NMeA = CN[C@@H](C)C(=O)O; Piperidide = C1CCN(*)CC1; dNMeA = CN[C@H](C)C(=O)O; Ac5c = NC1(C(=O)O)CCCC1; Aze = O=C(O)[C@@H]1CCN1; Sar = CNCC(=O)O

COMPOUND | pIC50
CC[C@H](C)[C@@H]1NC(=O)[C@H](C)N(C)C(=O)C[C@@H](C)NC(=O)[C@H](C2CCCC2)N(C)C(=O)C2(CCCC2)NC(=O)[C@@H]2CCCN2C(=O)[C@H](CCc2ccc(C(F)(F)F)c(Cl)c2)NC(=O)[C@@H](C)N(C)C(=O)[C@H](Cc2ccc(F)cc2)N(C)C(=O)[C@@H]2CCN2C(=O)[C@H](C)N(C)C1=O [Compound 584] (cyclo([Ac5c][NMeGly(cPent)][d(β3hA)][NMeA]I[NMeA][Aze][NMePhe(4-F)][dNMeA][hPhe(3-Cl-4-CF3)]P)) | 7.51
CC[C@H](C)[C@@H]1NC(=O)[C@H](C)N(C)C(=O)C[C@@H](C)NC(=O)[C@H](C(C)C)N(C)C(=O)C2(CCCC2)NC(=O)[C@@H]2CCCN2C(=O)[C@H](CCc2ccc(C(F)(F)F)c(Cl)c2)NC(=O)[C@H]2CCCCN2C(=O)[C@H](CC2CCCCC2)N(C)C(=O)[C@@H]2CCCN2C(=O)CN(C)C1=O [Compound 834] (cyclo([Ac5c][NMeV][d(β3hA)][NMeA]I[Sar]P[NMeCha][dPip][hPhe(3-Cl-4-CF3)]P)) | 7.24
CC[C@H](C)[C@@H]1NC(=O)[C@H](C)N(C)C(=O)C[C@@H](C(=O)N2CCCCC2)N(C)C(=O)[C@H](C(C)C)N(C)C(=O)C2(CCCC2)NC(=O)[C@@H]2CCCN2C(=O)[C@H](CCc2cc(Cl)c(Cl)c(OC)c2)NC(=O)CN(C)C(=O)[C@H](CC2CCCCC2)N(C)C(=O)CN(C)C(=O)CN(C)C1=O [Compound 2061] ([NMeA]I[Sar][Sar][NMeCha][Sar][X15]P[Ac5c][NMeV][NMeD]-Piperidide; lactam N-11) | 7.68
